molecular target: JAK1 (Homo sapiens, UniProt P23458); construct: purchased Reaction Biology Corp, Malvern, PA (contract testing); test: JAK1 cellular ELISA assay using PBMC cells (IL-6 stimulated STAT3 phosphorylation); format: cell-based; settings: IL-6 100 ng/ml, 25 min
Sequence (P23458 whole entry): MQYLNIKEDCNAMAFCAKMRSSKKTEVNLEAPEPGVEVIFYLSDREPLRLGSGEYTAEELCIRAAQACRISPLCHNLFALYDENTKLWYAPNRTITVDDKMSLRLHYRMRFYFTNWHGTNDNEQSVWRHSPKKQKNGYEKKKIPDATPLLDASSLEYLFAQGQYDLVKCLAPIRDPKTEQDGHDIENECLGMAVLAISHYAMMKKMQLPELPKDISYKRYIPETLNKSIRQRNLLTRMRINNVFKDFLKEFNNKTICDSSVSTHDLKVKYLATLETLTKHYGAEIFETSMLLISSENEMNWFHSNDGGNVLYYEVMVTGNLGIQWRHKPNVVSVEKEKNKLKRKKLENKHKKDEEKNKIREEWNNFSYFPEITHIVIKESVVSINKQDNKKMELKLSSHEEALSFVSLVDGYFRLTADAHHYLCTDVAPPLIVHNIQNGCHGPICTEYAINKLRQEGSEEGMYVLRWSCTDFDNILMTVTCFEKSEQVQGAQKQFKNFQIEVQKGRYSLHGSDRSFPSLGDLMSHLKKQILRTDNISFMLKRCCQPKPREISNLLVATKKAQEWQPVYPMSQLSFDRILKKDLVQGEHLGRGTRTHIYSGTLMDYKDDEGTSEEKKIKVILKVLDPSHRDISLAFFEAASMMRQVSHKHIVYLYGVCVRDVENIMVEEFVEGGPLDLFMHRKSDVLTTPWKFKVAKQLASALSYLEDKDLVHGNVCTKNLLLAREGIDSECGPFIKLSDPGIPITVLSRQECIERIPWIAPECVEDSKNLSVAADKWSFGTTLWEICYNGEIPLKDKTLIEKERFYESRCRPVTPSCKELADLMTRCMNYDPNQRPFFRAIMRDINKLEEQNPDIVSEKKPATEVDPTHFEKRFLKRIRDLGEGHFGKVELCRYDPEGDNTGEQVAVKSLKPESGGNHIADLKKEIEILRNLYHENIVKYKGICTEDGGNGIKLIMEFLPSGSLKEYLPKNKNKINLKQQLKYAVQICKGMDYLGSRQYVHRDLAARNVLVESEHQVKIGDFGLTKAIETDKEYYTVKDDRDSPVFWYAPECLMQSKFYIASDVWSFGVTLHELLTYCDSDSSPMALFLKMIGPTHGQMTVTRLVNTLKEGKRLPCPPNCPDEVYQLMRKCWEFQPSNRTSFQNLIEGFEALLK
pIC50: −log10 of the molar value.
parameter: pIC50

{"mol-smiles": "Cc1nc2cnc3ccoc3c2n1[C@H]1CC[C@H](CC#N)CC1", "measured-result": "> 6.52"}
{"mol-smiles": "Cc1nc2cnc3ccoc3c2n1[C@H]1CC[C@H](CC#N)OC1", "measured-result": "> 6.52"}

----------
molecular target: JAK3 (Homo sapiens, UniProt P52333)
Sequence (P52333 whole entry): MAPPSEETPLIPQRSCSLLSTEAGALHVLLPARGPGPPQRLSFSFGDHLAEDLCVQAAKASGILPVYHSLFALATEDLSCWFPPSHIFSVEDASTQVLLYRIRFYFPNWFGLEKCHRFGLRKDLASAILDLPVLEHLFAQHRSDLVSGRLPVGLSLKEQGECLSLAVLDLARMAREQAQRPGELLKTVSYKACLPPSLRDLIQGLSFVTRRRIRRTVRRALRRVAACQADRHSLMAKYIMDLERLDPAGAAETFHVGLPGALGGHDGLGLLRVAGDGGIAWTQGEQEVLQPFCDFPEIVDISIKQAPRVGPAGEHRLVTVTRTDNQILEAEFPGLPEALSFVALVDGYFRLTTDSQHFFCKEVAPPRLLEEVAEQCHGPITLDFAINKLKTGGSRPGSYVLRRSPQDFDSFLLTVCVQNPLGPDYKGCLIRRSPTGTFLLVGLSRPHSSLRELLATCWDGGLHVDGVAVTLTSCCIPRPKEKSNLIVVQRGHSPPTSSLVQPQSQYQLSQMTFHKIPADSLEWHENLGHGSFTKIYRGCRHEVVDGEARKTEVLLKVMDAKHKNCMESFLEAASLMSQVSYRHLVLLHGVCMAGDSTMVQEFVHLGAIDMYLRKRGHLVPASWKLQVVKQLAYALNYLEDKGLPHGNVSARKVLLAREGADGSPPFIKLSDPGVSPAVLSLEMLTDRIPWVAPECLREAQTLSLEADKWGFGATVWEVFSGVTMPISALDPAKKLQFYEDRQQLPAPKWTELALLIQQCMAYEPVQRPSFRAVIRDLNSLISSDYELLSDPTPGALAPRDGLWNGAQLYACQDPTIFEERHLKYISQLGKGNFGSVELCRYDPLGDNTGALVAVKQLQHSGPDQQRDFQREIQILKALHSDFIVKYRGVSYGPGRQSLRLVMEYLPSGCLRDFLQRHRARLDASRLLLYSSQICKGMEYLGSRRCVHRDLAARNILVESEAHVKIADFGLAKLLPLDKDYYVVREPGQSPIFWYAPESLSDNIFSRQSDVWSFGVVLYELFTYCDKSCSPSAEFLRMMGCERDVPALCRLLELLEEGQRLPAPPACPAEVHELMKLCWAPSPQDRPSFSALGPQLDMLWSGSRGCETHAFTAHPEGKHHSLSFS
pIC50: −log10 of the molar value.

{"mol-smiles": "Cc1nc2cnc3ccoc3c2n1[C@H]1CC[C@H](CC#N)OC1", "pIC50": "< 7.00"}
{"mol-smiles": "Cc1nc2cnc3ccoc3c2n1[C@H]1CC[C@H](CC#N)CC1", "pIC50": "< 7.00"}

----------
molecular target: TYK2 (Homo sapiens); construct: purchased Reaction Biology Corp, Malvern, PA (contract testing); assay: TYK2 cellular ELISA assay using NK92 cells (IL-12 and IL-18 stimulated IFNγ excretion); format: cell-based; conditions: IL-12 2 ng/ml, IL-18 5 ng/ml, 24 hours
Sequence (P29597 whole entry): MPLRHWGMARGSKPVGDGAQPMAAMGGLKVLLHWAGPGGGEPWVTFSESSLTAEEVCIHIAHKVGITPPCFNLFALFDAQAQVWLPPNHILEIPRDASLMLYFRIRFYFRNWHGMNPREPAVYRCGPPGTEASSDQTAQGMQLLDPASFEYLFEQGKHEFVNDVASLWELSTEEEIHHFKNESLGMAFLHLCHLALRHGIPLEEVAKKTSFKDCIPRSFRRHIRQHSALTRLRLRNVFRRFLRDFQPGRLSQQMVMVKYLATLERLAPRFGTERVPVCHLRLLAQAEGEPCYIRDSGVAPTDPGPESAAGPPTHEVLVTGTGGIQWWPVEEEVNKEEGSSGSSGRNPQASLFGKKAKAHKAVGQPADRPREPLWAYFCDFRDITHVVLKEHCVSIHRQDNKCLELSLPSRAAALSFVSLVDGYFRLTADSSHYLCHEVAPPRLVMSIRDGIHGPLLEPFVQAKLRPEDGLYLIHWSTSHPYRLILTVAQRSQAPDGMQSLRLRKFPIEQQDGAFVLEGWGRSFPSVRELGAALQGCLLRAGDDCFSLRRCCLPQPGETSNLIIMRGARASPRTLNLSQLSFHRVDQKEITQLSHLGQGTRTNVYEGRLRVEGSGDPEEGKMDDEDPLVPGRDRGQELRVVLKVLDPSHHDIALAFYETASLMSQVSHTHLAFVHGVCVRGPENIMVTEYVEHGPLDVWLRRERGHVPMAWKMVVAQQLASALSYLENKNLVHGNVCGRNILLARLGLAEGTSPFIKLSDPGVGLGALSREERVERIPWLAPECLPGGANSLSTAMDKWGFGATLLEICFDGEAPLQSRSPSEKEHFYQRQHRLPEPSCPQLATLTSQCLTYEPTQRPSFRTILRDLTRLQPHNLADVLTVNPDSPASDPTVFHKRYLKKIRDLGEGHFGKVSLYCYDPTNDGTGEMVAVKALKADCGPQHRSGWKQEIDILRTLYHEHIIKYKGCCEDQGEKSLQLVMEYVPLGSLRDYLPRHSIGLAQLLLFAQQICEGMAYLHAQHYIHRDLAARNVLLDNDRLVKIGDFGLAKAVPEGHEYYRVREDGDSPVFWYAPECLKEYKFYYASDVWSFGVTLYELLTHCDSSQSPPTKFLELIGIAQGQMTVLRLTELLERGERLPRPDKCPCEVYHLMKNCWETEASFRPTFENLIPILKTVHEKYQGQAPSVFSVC
pIC50: −log10 of the molar value.
parameter: pIC50

{"mol-smiles": "Cc1nc2cnc3ccoc3c2n1[C@H]1CC[C@H](CC#N)OC1", "parameter": "pIC50", "measured-result": "> 7.00"}
{"mol-smiles": "Cc1nc2cnc3ccoc3c2n1[C@H]1CC[C@H](CC#N)CC1", "parameter": "pIC50", "measured-result": "> 7.00"}

----------
experiment: Brain penetration in mice; assay type: in vivo, C57BL/6 mice; settings: male, C57BL/6, CSF/plasma; mouse; 30 mg/kg oral gavage; 4-hour post-dosing; read-out: CSF (ng/ml)/ Plasma (ng/ml)
Kp at 4 h: recorded values
parameter: Kp at 4 h

{"mol-smiles": "Cc1nc2cnc3ccoc3c2n1[C@H]1CC[C@H](CC#N)OC1", "parameter": "Kp at 4 h", "measured-result": "> 0.15"}
{"mol-smiles": "Cc1nc2cnc3ccoc3c2n1[C@H]1CC[C@H](CC#N)CC1", "parameter": "Kp at 4 h", "measured-result": "> 0.15"}

----------
target: TYK2 (Homo sapiens); construct: purchased Reaction Biology Corp, Malvern, PA (contract testing); assay: TYK2 biochemical test (33P-ATP filter binding, Reaction Biology); details: read-out: Inhibition of TYK2 (IC50)

{"mol-smiles": "Cc1nc2cnc3ccoc3c2n1[C@H]1CC[C@H](CC#N)CC1", "IC50": "< 10 nM"}
{"mol-smiles": "CCc1nc2cnc3ccoc3c2n1[C@H]1CC[C@H](CC#N)OC1", "IC50": "< 100 nM"}
{"mol-smiles": "Cc1nc2cnc3ccoc3c2n1[C@H]1CC[C@H](CC#N)OC1", "IC50": "< 10 nM"}

----------
Experiment: Brain penetration in rats
Assay type: in vivo
Conditions: male, CSF/plasma; rat; 10 mg/kg oral gavage; 8 hour post-dosing; read-out: CSF (ng/ml)/ Plasma (ng/ml)
Description: This testing was performed to test the ability of compounds to penetrate the blood-brain-barrier in rats. […]

{"compound": "Cc1nc2cnc3ccoc3c2n1[C@H]1CC[C@H](CC#N)OC1 [Formula (II)]", "Kp at 8 h": "> 0.15"}
{"compound": "Cc1nc2cnc3ccoc3c2n1[C@H]1CC[C@H](CC#N)CC1 [Formula (III)]", "Kp at 8 h": "> 0.15"}
